These measurements were taken from ChEMBL document CHEMBL6109088.

experiment: in vivo; conditions: male, Wistar Hannover, rat, po, 10 mg/kg
Measured Endpoint: AUC(0-inf) at 4 h (ng·h/mL)
Give the value in ng·h/mL but do not write ng·h/mL after it.

Task: Returns the measured AUC(0-inf) at 4 h for the input compound. Input: `CC(C)(C)[C@H](NC(=O)C(F)(F)F)C(=O)N1C[C@H]2[C@@H]([C@H]1C(=O)N[C@H](C#N)C[C@@H]1CCNC1=O)C2(C)C`
Result: 3190

---

assay: in vivo; settings: male, cynomolgus monkey, po, 10 mg/kg
Measured Endpoint: AUC(0-inf) (ng·h/mL)
Give the value in ng·h/mL but do not write ng·h/mL after it.

Task: Returns the measured AUC(0-inf) for the input molecule. Input: `CC(C)[C@H](NC(=O)C(F)(F)F)C(=O)N1C[C@H]2[C@@H]([C@H]1C(=O)N[C@@H](C[C@@H]1CCNC1=O)C(=O)c1nc3ccccc3s1)C2(C)C`
Result: 505

---

test: physchem; details: octanol/water
Measured Endpoint: logD
Format: numeric value only, no unit, no commentary.

Study these solved cases before continuing.
Compound: COc1cccc2[nH]c(C(=O)N[C@@H](CC(C)(C)C)C(=O)N[C@@H](C[C@@H]3CCNC3=O)C(=O)c3nc4ccccc4s3)cc12
Measured Endpoint: logD
Value Reported: 4
--
Compound: CC(=O)N[C@H](C(=O)N1C[C@H]2[C@@H]([C@H]1C(=O)N[C@@H](C[C@@H]1CCNC1=O)C(=O)c1nc3ccccc3s1)C2(C)C)C(C)(C)C
Measured Endpoint: logD
Value Reported: 2.4
--
Compound: CC(C)[C@H](NC(=O)C(F)(F)F)C(=O)N1C[C@H]2[C@@H]([C@H]1C(=O)N[C@@H](C[C@@H]1CCNC1=O)C(=O)c1nc3ccccc3s1)C2(C)C
Measured Endpoint: logD
Value Reported: 3

Task: Returns the measured logD for the input compound. Input: `COc1cccc2[nH]c(C(=O)N3C[C@H]4[C@@H]([C@H]3C(=O)N[C@@H](C[C@@H]3CCNC3=O)C(=O)c3nc5ccccc5s3)C4(C)C)cc12`
Result: 4.2

Task: Returns the measured logD for the input compound. Input: `CC(C)[C@H](NS(C)(=O)=O)C(=O)N1C[C@H]2[C@@H]([C@H]1C(=O)N[C@@H](C[C@@H]1CCNC1=O)C(=O)c1nc3ccccc3s1)C2(C)C`
Result: 2.4

Task: Returns the measured logD for the input compound. Input: COc1cccc2[nH]c(C(=O)N[C@@H](CC(C)C)C(=O)N[C@@H](C[C@@H]3CCNC3=O)C(=O)CO)cc12 [PF-00835231]
Result: 1.7

---

experiment: in vivo; settings: male, cynomolgus monkey, iv, 1 mg/kg
Measured Endpoint: half-life (h)
Give the value in h but do not write h after it.

Task: Returns the measured half-life for the input molecule. Input: `CC(C)[C@H](NC(=O)C(F)(F)F)C(=O)N1C[C@H]2[C@@H]([C@H]1C(=O)N[C@@H](C[C@@H]1CCNC1=O)C(=O)c1nc3ccccc3s1)C2(C)C`
Result: 1.08

---

experiment: in vivo; details: male, Beagle, dog, plasma, iv, 1 mg/kg
Measured Endpoint: clearance (mL/min/kg)
Give the value in mL/min/kg but do not write mL/min/kg after it.

Task: Returns the measured clearance for the input molecule. Input: `CC(C)[C@H](NC(=O)C(F)(F)F)C(=O)N1C[C@H]2[C@@H]([C@H]1C(=O)N[C@@H](C[C@@H]1CCNC1=O)C(=O)c1nc3ccccc3s1)C2(C)C`
Result: 20.7
